# Test system: BT-549 breast
# assay.protocol: NCI-60 one-dose screen, 48 h (100 = growth as untreated, 0 = no growth, -100 = all killed)
# study.conditions: 10 µM
About 83,000 compounds went through this panel and 20% of them were active in at least one assay; those are over-represented in the sample as a whole.
growth strictly under 50% means T; at 50% or over means F.

- CS(=O)(=O)c1nccc(-c2c(-c3ccc(OCCc4ccccc4)cc3)nc3sccn23)n1: F
- CC(=O)Nc1cc2c(cc1Cl)Cc1cc(Cl)ccc1-2: F
- Cc1cc(CSc2ccccc2C(=O)N2CC=C(c3ccccc3)CC2)on1: F
- CS(=O)(=O)c1nccc(-c2c(-c3cccc(OCc4ccccc4)c3)nc3sccn23)n1: F
- COc1cc(C2CC(c3cc(Cl)c(C)cc3O)=NN2c2ccc(S(N)(=O)=O)cc2)cc(OC)c1OC (configuration not stated): T
- COC(=O)C1OC1c1cc([N+](=O)[O-])ccc1OC (configuration not stated): F
- Cc1c2c[n+](C(C)C)ccc2c(C)c2c1[nH]c1ccccc12: T
- COc1ccc(C2CC(c3cccs3)=NN2c2ccc(S(N)(=O)=O)cc2)cc1 (configuration not stated): F
- CCn1c2ccc(O)cc2c2c(C)c3c[n+](C)ccc3c(C)c21: T
- C=C(C)[C@@H]1CC[C@]2(COCCC#N)CC[C@]3(C)[C@H](CC[C@@H]4[C@@]5(C)Cc6c([nH]c7ccccc67)C(C)(C)[C@@H]5CC[C@]43C)[C@@H]12: F
- Oc1ccc(-c2[nH]c3ccccc3c2-c2nc3ccccc3o2)cc1: F
- Cc1cn(-c2cc(F)cc(NC(=O)c3ccc(C)c(Nc4nccc(-c5cccnc5)n4)c3)c2)cn1: T
- Clc1nc2ccccc2cc1Cn1nnc(Cc2ccccc2)n1: T
- COc1cc2c3c(n(C4CCNCC4)c(=O)c2cc1OC)-c1cc2c(cc1C3=O)OCO2: T
- O=C1/C=C/[C@@H](O)[C@@H]2C[C@@H](O)C[C@H]2/C=C/CCC[C@H](CCc2ccc(NC(=S)Nc3ccc4c(c3)C(=O)OC43c4ccc(O)cc4Oc4cc(O)ccc43)cc2)O1: T
- COc1cccc(CNc2cccc3cn[nH]c23)c1O: F
- Cc1cc(CCNC=O)c(C)c2c1sc1ccccc12: F
- CCOC(=O)c1cc(C(=O)c2cc(OC)cc(OC)c2)n2ncc3ccccc3c12: T
- COc1cc2nc(SCC(=O)Nc3cc(OC)c(OC)c(OC)c3)n(Cc3ccccc3)c(=O)c2cc1OC: T
- COc1ccc(/C=C2\CCCC3=C2N=C2SC(C)=CN2C3c2ccc(OC)cc2)cc1 (configuration not stated): F
- COc1ccc(C(=O)c2ccccc2CN2C(=O)c3ccccc3C2=O)cc1: F
- Nc1nc(-c2cccnc2)nc2c1sc(=S)n2-c1ccccc1: F
- CCOC(=O)c1sc2ncnc(Nc3ccc(NC(=O)Nc4ccc(Cl)cc4)cc3)c2c1C: F
- O=[N+]([O-])c1ccc2ncccc2c1Cl: T
- O[C@@H]1CO[C@H]2[C@@H]1OC[C@@H]2O: F
- CCCCCC(=O)O[C@]1(C(C)=O)CCC2C3CCC4=CC(=O)CC[C@]4(C)C3CC[C@@]21C (some centres not stated): T
- COc1cc2c3c(n([C@H]4CCOC4)c(=O)c2cc1OC)-c1cc2c(cc1C3=O)OCO2: T

Source listed as PubChem BioAssay (NCI).
